molecular target: Solute carrier organic anion transporter family member 2B1 (Rattus norvegicus, UniProt Q9JHI3); test: TP_TRANSPORTER: uptake in Xenopus laevis oocytes; assay type: functional, cell-based; conditions: oocyte
Sequence (Q9JHI3 whole entry): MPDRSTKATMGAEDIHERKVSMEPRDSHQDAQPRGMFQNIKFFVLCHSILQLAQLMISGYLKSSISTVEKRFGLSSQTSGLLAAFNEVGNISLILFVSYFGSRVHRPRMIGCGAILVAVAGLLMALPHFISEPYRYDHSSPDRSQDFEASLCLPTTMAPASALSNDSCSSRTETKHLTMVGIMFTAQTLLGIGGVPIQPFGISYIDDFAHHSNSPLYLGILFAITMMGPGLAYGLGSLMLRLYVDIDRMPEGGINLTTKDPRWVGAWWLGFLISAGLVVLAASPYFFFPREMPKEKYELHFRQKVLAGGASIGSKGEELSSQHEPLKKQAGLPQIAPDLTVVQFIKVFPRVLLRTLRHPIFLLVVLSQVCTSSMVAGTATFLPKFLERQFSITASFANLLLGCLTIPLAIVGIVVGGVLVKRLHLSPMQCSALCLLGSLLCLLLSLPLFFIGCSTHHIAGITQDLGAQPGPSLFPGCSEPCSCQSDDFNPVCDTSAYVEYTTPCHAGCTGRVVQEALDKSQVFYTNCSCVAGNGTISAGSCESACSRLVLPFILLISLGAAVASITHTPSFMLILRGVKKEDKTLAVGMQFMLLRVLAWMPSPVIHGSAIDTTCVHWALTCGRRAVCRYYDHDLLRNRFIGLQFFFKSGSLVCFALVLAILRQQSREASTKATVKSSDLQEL
Assay endpoint: Activity

1. CCCCC[C@H](O)/C=C/[C@@H]1[C@@H](C/C=C\CCCC(=O)O)[C@@H](O)C[C@H]1O	is not a substrate [-]
2. CC#CCC(C)[C@H](O)/C=C/[C@@H]1[C@H]2C/C(=C/CCCC(=O)O)C[C@H]2C[C@H]1O (stereo partly specified)	substrate [+]
3. C[C@]12CC[C@H](OS(=O)(=O)O)CC1=CC[C@@H]1[C@@H]2CC[C@]2(C)C(=O)CC[C@@H]12	is not a substrate [-]
4. CCCCC[C@H](O)/C=C/[C@H]1[C@H](O)CC(=O)[C@@H]1CCCCCCC(=O)O	substrate [+]
5. CCCCC[C@H](O)/C=C/[C@H]1OC(O)C[C@H](O)[C@@H]1C/C=C\CCCC(=O)O (stereo partly specified)	substrate [+]
6. CCCCC[C@H](O)/C=C/[C@H]1[C@H](O)CC(=O)[C@@H]1C/C=C\CCCC(=O)O	substrate [+]

meta.source: ChEMBL document CHEMBL2074151
